system: LOC_OS01G60700-cb002; experiment: thermal shift delta Tm vs DMSO control; higher = stronger stabilization (binding); conditions: 12.5 µM; protein concentration 2 µM;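 also: purified Escherichia coli-expressed rice kinase domain construct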
Property: thermal shift delta Tm (°C)

{"columns": ["Molecule", "Property", "Recorded value"],
 "data": [
  ["CC(C)Oc1ccc(-c2nn([C@@H](C)c3oc4ccc(F)cc4c(=O)c3-c3cccc(F)c3)c3ncnc(N)c23)cc1F", "thermal shift delta Tm", 0.79],
  ["Cc1ccccc1CN1C2=NCCN2C(=O)C2=C1CCN(Cc1ccccc1)C2", "thermal shift delta Tm", 1.04],
  ["CNC(=O)CN1CCC(Oc2cc3c(Nc4cccc(Cl)c4F)ncnc3cc2OC)CC1", "thermal shift delta Tm", 0.56],
  ["CCn1c2ccccc2c2cc(Nc3ccnc(NCCCN4CCOCC4)n3)ccc21", "thermal shift delta Tm", 0.87],
  ["CCN(CC)CCNC(=O)c1c(C)[nH]c(/C=C2\\C(=O)Nc3ccc(F)cc32)c1C", "thermal shift delta Tm", 0.91],
  ["Nc1ncnc2n[nH]c(Nc3ccc(F)cc3)c12", "thermal shift delta Tm", 0.86],
  ["Cc1cc(CS(=O)(=O)c2ccccc2)cc(OCc2ccc(CN3CCC[C@@H]3CO)cc2)c1", "thermal shift delta Tm", 1.22],
  ["O=C1NC(=O)C(c2ccccc2[N+](=O)[O-])=C1Nc1ccc(O)c(Cl)c1", "thermal shift delta Tm", 1.88],
  ["Cc1cc(C)c(/C=C2\\C(=O)Nc3ccccc32)[nH]1 [Semaxanib (SU5416)]", "thermal shift delta Tm", 1.12],
  ["COc1cc(Nc2ncc(F)c(Nc3ccc4c(n3)N(COP(=O)(O)O)C(=O)C(C)(C)O4)n2)cc(OC)c1OC [R788 (Fostamatinib) Disodium]", "thermal shift delta Tm", 1.17],
  ["CC(C)CCN1c2nc(Nc3cc(F)c(O)c(F)c3)ncc2N(C)C(=O)C1C (centres undefined)", "thermal shift delta Tm", 2.07],
  ["CO[C@@H](C(=O)N1Cc2[nH]nc(NC(=O)c3ccc(N4CCN(C)CC4)cc3)c2C1)c1ccccc1", "thermal shift delta Tm", 0.4],
  ["Oc1c2ccccc2c2c3c(cccc13)N=N2", "thermal shift delta Tm", 1.18],
  ["CNC(=O)c1cc(COc2nnc(Nc3ccc(Cl)cc3)c3ccoc23)ccn1", "thermal shift delta Tm", 0.35],
  ["O=C1NC(=O)/C(=C/c2ccc(-c3ccc(F)cc3O)o2)S1", "thermal shift delta Tm", 1.12],
  ["O=C1NCCc2[nH]c(-c3ccncc3)cc21", "thermal shift delta Tm", 0.92],
  ["CCn1c(=O)c(-c2cc[nH]n2)cc2c(C)nc(N)nc21", "thermal shift delta Tm", 0.72],
  ["Cc1cc(CN2CCN(c3c(Br)cnc4nc(-c5ccc(N6CCN(C)CC6)cc5)[nH]c34)CC2)no1", "thermal shift delta Tm", 0.17],
  ["OC(c1cc(-c2ccc(Cl)cc2)nc2ccccc12)C1CCCCN1 (centres undefined)", "thermal shift delta Tm", 1.39],
  ["Cc1csc(-c2nnc(Nc3ccc(Oc4ncccc4-c4ccnc(N)n4)cc3)c3ccccc23)c1", "thermal shift delta Tm", 0.56],
  ["CNC(=O)c1cc(Oc2ccc(NC(=O)Nc3ccc(Cl)c(C(F)(F)F)c3)c(F)c2)ccn1", "thermal shift delta Tm", 0.77],
  ["CO[C@H]1C[C@@H]2CC[C@@H](C)[C@@](O)(O2)C(=O)C(=O)N2CCCC[C@H]2C(=O)O[C@H]([C@H](C)C[C@@H]2CC[C@@H](OCCO)[C@H](OC)C2)CC(=O)[C@H](C)/C=C(\\C)[C@@H](O)[C@@H](OC)C(=O)[C@H](C)C[C@H](C)/C=C/C=C/C=C/1C [Everolimus (RAD001)]", "thermal shift delta Tm", 0.6],
  ["NCC(=O)Nc1ccc(-n2nc(C(F)(F)F)cc2-c2ccc3c(ccc4ccccc43)c2)cc1", "thermal shift delta Tm", 0.02],
  ["C[C@H](Nc1ncnc2[nH]cnc12)c1cc2ccc(F)cc2nc1-c1ccccn1", "thermal shift delta Tm", 2.33],
  ["COc1ccc2c(c1)[C@]1(C[C@H]1c1ccc3c(/C=C/c4ccc(CN5C[C@@H](C)O[C@@H](C)C5)cc4)n[nH]c3c1)C(=O)N2", "thermal shift delta Tm", 0.64],
  ["Cc1nc(Nc2ncc(C(=O)Nc3c(C)cccc3Cl)s2)cc(N2CCN(CCO)CC2)n1", "thermal shift delta Tm", 1.43],
  ["Cc1cc(C(=O)NOCCO)c(Nc2ccc(I)cc2F)n(C)c1=O", "thermal shift delta Tm", 0.64],
  ["COc1cc(Nc2c(C#N)cnc3cc(OCCCN4CCN(C)CC4)c(OC)cc23)c(Cl)cc1Cl [Bosutinib (SKI-606)]", "thermal shift delta Tm", 0.95],
  ["CC1=C(C(=O)Nc2cc3cn[nH]c3cc2F)C(c2ccc(C(F)(F)F)cc2)CC(=O)N1 (centres undefined)", "thermal shift delta Tm", 0.2],
  ["CCn1c(-c2nonc2N)nc2c(C#CC(C)(C)O)ncc(OC[C@H]3CCCNC3)c21", "thermal shift delta Tm", 1.82],
  ["COc1ccc(-c2cc3c(C)nc(N)nc3n([C@H]3CC[C@H](OCCO)CC3)c2=O)cn1", "thermal shift delta Tm", 0.9],
  ["Cc1c(NC(=O)c2ccc(C(C)(C)C)cc2)cccc1-c1cn(C)c(=O)c(Nc2ccc(C(=O)N3CCOCC3)cc2)n1", "thermal shift delta Tm", 1.36],
  ["COc1cccc2cc(-c3nc([C@H]4CC[C@H](C(=O)O)CC4)n4ncnc(N)c34)[nH]c12", "thermal shift delta Tm", 0.9],
  ["CC(C)(C)S(=O)(=O)c1ccc2nccc(Nc3n[nH]c4ccc(F)cc34)c2c1", "thermal shift delta Tm", 0.81]
]}
